test system: SK-OV-3 (ATCC HTB 77): human ovarian adenocarcinoma; assay: In vitro antitumor activity, MTT assay, SK-OV-3; assay type: cell-based; settings: Homo sapiens, SK-OV-3, Table 3, 48 hrs
measure-name: IC50

Example results:
# compound, IC50
data = [
    ("CCCNC(=O)N1CCc2cc(S(=O)(=O)N3CC(c4ccccc4)NC3=O)ccc21 (stereo not drawn)", "0.261 µg/mL"),
    ("O=C1NC(c2ccccc2)CN1S(=O)(=O)c1ccc2c(c1)CCN2C(=S)Nc1ccc(F)cc1 (stereo not drawn)", "3.13 µg/mL"),
    ("C=CCNC(=O)N1CCc2cc(S(=O)(=O)N3CC(c4ccccc4)NC3=O)ccc21 (stereo not drawn)", "0.685 µg/mL"),
    ("O=C(Nc1ccccc1)N1CCc2cc(S(=O)(=O)N3CC(c4ccccc4)NC3=O)ccc21 (stereo not drawn)", "0.16 µg/mL"),
    ("COc1ccc(NC(=S)N2CCc3cc(S(=O)(=O)N4CC(c5ccccc5)NC4=O)ccc32)cc1 (stereo not drawn)", "1.03 µg/mL"),
]

Entry under test: O=C(NC1CCCCC1)N1CCc2cc(S(=O)(=O)N3CC(c4ccccc4)NC3=O)ccc21 (stereo not drawn) . Its IC50 was 0.043 µg/mL

Entry under test: CCNC(=O)N1CCc2cc(S(=O)(=O)N3CC(c4ccccc4)NC3=O)ccc21 (stereo not drawn) . Its IC50 was 1.95 µg/mL

Entry under test: CCCCNC(=S)N1CCc2cc(S(=O)(=O)N3CC(c4ccccc4)NC3=O)ccc21 (stereo not drawn) . Its IC50 was 0.897 µg/mL

Entry under test: CCNC(=S)N1CCc2cc(S(=O)(=O)N3CC(c4ccccc4)NC3=O)ccc21 (stereo not drawn) . Its IC50 was 3.17 µg/mL

Entry under test: CSc1ccc(NC(=O)N2CCc3cc(S(=O)(=O)N4CC(c5ccccc5)NC4=O)ccc32)cc1 (stereo not drawn) . Its IC50 was 0.716 µg/mL

Entry under test: Cc1ccc(NC(=O)N2CCc3cc(S(=O)(=O)N4CC(c5ccccc5)NC4=O)ccc32)cc1 (stereo not drawn) . Its IC50 was 0.813 µg/mL

Entry under test: COc1ccccc1NC(=O)N1CCc2cc(S(=O)(=O)N3CC(c4ccccc4)NC3=O)ccc21 (stereo not drawn) . Its IC50 was 0.273 µg/mL

Entry under test: CNC(=S)N1CCc2cc(S(=O)(=O)N3CC(c4ccccc4)NC3=O)ccc21 (stereo not drawn) . Its IC50 was 1.98 µg/mL

====

test system: Colo205 (ATCC CCL 222): human colon adenocarcinoma; experiment: In vitro antitumor activity, MTT assay, Colo205; type: cell-based; conditions: Homo sapiens, COLO 205, Table 1, 48 hrs, read-out: IC50 (Colo205)
measure-name: IC50 (µg/mL)
# number only, unit µg/mL dropped from output

Example results:
# compound, test-value
data = [
    ("CCNC(=O)N1c2ccc(S(=O)(=O)n3cc(-c4ccccc4)[nH]c3=O)cc2CC1C (centres unmarked)", 0.265),
    ("CC(C)(C)NC(=O)N1CCc2cc(S(=O)(=O)n3cc(-c4ccccc4)[nH]c3=O)ccc21", 0.549),
    ("CCOC(=O)N1CCc2cc(S(=O)(=O)n3cc(-c4ccccc4)[nH]c3=O)ccc21", 0.906),
    ("O=C(c1cccnc1)N1CCc2cc(S(=O)(=O)n3cc(-c4ccccc4)[nH]c3=O)ccc21", 0.382),
    ("O=C(c1ccccc1)N1CCc2cc(S(=O)(=O)n3cc(-c4ccccc4)[nH]c3=O)ccc21", 0.644),
    ("O=C(c1ccc([N+](=O)[O-])cc1)N1CCc2cc(S(=O)(=O)n3cc(-c4ccccc4)[nH]c3=O)ccc21", 0.651),
    ("CCCNC(=O)N1c2ccc(S(=O)(=O)n3cc(-c4ccccc4)[nH]c3=O)cc2CC1C (centres unmarked)", 0.519),
    ("CC(C)NC(=O)N1c2ccc(S(=O)(=O)n3cc(-c4ccccc4)[nH]c3=O)cc2CC1C (centres unmarked)", 0.102),
    ("Nc1ccc(C(=O)N2CCc3cc(S(=O)(=O)n4cc(-c5ccccc5)[nH]c4=O)ccc32)cc1", 0.334),
    ("CC1Cc2cc(S(=O)(=O)n3cc(-c4ccccc4)[nH]c3=O)ccc2N1C(=O)c1ccc([N+](=O)[O-])cc1 (centres unmarked)", 1.11),
]

Entry under test: CC1Cc2cc(S(=O)(=O)n3cc(-c4ccccc4)[nH]c3=O)ccc2N1C(=O)c1ccc(N)cc1 (centres unmarked) . Its IC50 was 0.861

Entry under test: CCOc1ccc(C(=O)N2CCc3cc(S(=O)(=O)n4cc(-c5ccccc5)[nH]c4=O)ccc32)cc1 . Its IC50 was 1.28
